system: PFTK1; construct: gene CDK14; details: concentration: 1 μM, replicates: in singlicate; n = 1;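 further: KINOMEscan kinase panel screen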

{"columns": ["compound", "%Inh, %"],
 "data": [
  ["Nc1ncc(-c2cccnc2)c2scc(-c3ccc4c(c3)CCN4C(=O)Cc3ccccc3)c12 [GSK683281]", 20],
  ["CCc1ccc(-c2ccc3c(c2)-c2c(cnn2C)S(=O)(=O)N3C)cc1", 0],
  ["COc1cc(Nc2ncc3c(C)nc(-c4cc5ccccc5[nH]4)n3n2)cc(OC)c1OC [GW869516]", 4],
  ["Cl.c1ccc(-c2ccc3c(Nc4ccc5[nH]ccc5c4)ccnc3c2)nc1 [GW440138]", 14],
  ["C[C@@H](Oc1cc(-n2cnc3cc(-c4ccnc(NCCS(C)(=O)=O)c4)ccc32)sc1C(N)=O)c1ccccc1Cl [GSK907232]", 12],
  ["Cl.Cl.NCC(NCc1ccc(-c2ccnc3[nH]ccc23)s1)c1ccccc1 (stereo not shown) [GSK1321565]", 1],
  ["Cc1ccc(C(=O)Nc2ccc(Nc3ccnc4cc(-c5nccs5)ccc34)cc2O)cc1.Cl [GW494702]", 0],
  ["O=C(Nc1cccc(-c2nn3ncccc3c2-c2ccnc(Nc3ccccc3)n2)c1)c1c(F)cccc1F [GSK198271]", 0],
  ["CC(C)c1nc(-c2cccc(NS(=O)(=O)c3c(F)cccc3F)c2F)c(-c2ccnc(Nc3ccc(N4CCOCC4)nc3)n2)s1 [GSK2008607]", 98.7],
  ["Fc1ccc(-c2ncn(C3CCNCC3)c2-c2ccnc(Oc3ccc(-c4ccccc4)cc3)n2)cc1 [SB-245391]", 9],
  ["CCS(=O)(=O)c1ccc(OC)c(Nc2nccc(-c3c(-c4cccc(NC(=O)c5c(F)cccc5F)c4)nn4ncccc34)n2)c1 [GSK326180]", 17],
  ["Cn1cc(-c2[nH]c3cc(NC(=O)[C@H](N)C4CCCCC4)cc4c3c2C=NNC4=O)cn1", 5],
  ["COc1ccc(Nc2nccc(N3CCC(NC(=O)Nc4cccc(OC)c4)C3)n2)cc1 (stereo not shown) [GSK1379742]", 2],
  ["FC(F)(F)c1ccc(/C=C/c2cncnc2Nc2ccc3[nH]c(Cc4ccccc4)nc3c2)cc1 [GW709199]", 15],
  ["Cc1ccc(F)c(C(=O)Nc2cccc(-c3nn4ccccc4c3-c3ccnc(Nc4cccc(F)c4)n3)c2)c1F [GSK361061]", 11],
  ["c1ccc(Oc2ccc(Nc3ccnc4cc(-c5ccc(CNCCN6CCOCC6)o5)ccc34)cc2)nc1 [GW567145]", 11],
  ["NCCCC(NC(=O)c1cc(Br)c(-c2ccnc3[nH]ccc23)s1)c1ccccc1.O=C(O)C(F)(F)F.O=C(O)C(F)(F)F (stereo not shown) [GSK1287544]", 0],
  ["Nc1n[nH]c2cnc(-c3ccccc3)cc12 [SB-642124]", 19],
  ["Cl.NC(=O)c1cccc(Nc2nccc(Nc3ccc(Oc4c(Cl)cccc4Cl)c(Cl)c3)n2)c1 [GW659009]", 0],
  ["CC(=O)Nc1nc2cnc(Nc3cc(NC(=O)c4cccc(C5(C#N)CC5)c4Cl)ccc3C)nc2s1", 0],
  ["CN(C)Cc1ccc(-c2ccc3c(Nc4ccc(Oc5ccccn5)cc4)ccnc3c2)o1 [GW567148]", 0],
  ["Oc1cc(Nc2ccnc3cc(I)ccc23)ccc1F [GW552771]", 0],
  ["CC(C)(C)c1ccc2nccc(Nc3cccc(O)c3)c2c1 [GW856795]", 0],
  ["Clc1ccc(-c2nn3ncccc3c2-c2ccnc(Nc3ccc4c(c3)OCCO4)n2)cc1 [GW829116]", 0],
  ["O=C(Nc1cccc(-c2nn3ccccc3c2-c2ccnc(Nc3cccc(F)c3)n2)c1)c1c(F)ccc(F)c1Cl [GSK357952]", 2]
]}
